system: OVCAR-5 ovarian; test: NCI-60 one-dose screen, 48 h (100 = growth as untreated, 0 = no growth, -100 = all killed); details: 10 µM unless noted
The panel holds about 83,000 compounds, 20% with a hit somewhere; the sample as a whole holds those more often.
growth for assorted compounds
Write the answer as a number in %, unit excluded.

Completed entries (count: 3):
compound | growth, %
CS(=O)(=O)Nc1cc(-c2ccc3ncnc(Nc4ccc5c(cnn5Cc5ccccc5F)c4)c3c2)cnc1Cl | 37.9
N#Cc1c(-c2ccc(Cl)cc2)nc(NN=Cc2ccc[nH]2)nc1N1CCOCC1 | 99.6
COc1ccc(Nc2ncc(I)c(NCCCNC(=O)C3CCC3)n2)cc1 | 3.96

Now, please, on to the next compound.
query: Lookup: growth / OVCAR-5 ovarian / O=C(/C=C/C12c3ccccc3C(c3ccccc31)C1C(=O)NC(=O)C12)c1ccc(I)cc1 (configuration not stated)
result: 73.4

----------
Tested on: LOX IMVI melanoma
Assay: NCI-60 one-dose screen, 48 h (100 = growth as untreated, 0 = no growth, -100 = all killed)
Details: 10 µM unless noted
Procedure: Growth inhibition of the LOX IMVI human tumor cell line is measured as a screen for anti-cancer activity. Cells are grown in 96 well plates and exposed to the test compound for 48 hours. Compounds are tested at a single concentration, which is 10^-5 M for most compounds. The reported endpoint is percent growth (GI% or GIPRCNT), where numbers from 0 - 100% represent growth inhibition, and numbers from -100% - 0 represent cell death. For example, a value of 40 represents 60% growth inhibition. […]
This is part of a sample that, as a whole, favours compounds with a hit. Of some 83,000 tested, about 20% had one in any assay.
growth for assorted compounds
Write the answer as a number in %, unit excluded.

smiles_representation | growth [%]
CC/C(=C(\c1ccc(Cl)cc1)c1ccc(OCCN2CCCCC2)cc1)c1ccc(O)cc1 | -91.5
Cc1nc2sc(C(=O)Nc3cccc(Cl)c3C)c(N)c2cc1C(=O)/C=C/c1ccccc1 | -75.8
Clc1ccc(-c2cc(-c3ccccc3)nc(N3CCN(CCCNc4ccnc5cc(Cl)ccc45)CC3)n2)cc1 | -95.5
N#Cc1c(-c2cccc(Cl)c2)cc(-c2cccnc2)[nH]c1=O | 81.2

Now, please, on to the next compound.
query: Recorded growth of Cc1nn(-c2ccc([N+](=O)[O-])cc2)c2ncnc(N/N=C/c3ccccc3O)c12 , please.
result: 6.25

----------
test system: MALME-3M melanoma; assay: NCI-60 one-dose screen, 48 h (100 = growth as untreated, 0 = no growth, -100 = all killed); conditions: 10 µM unless noted
About 83,000 compounds went through this panel and 20% of them were active in at least one assay; those are over-represented in the sample as a whole.
measure: growth (%)
Write the answer as a number in %, unit excluded.

Completed entries (count: 3):
compound | measure | recorded_number
C=CCn1cc(-c2nc3ccccc3s2)c2cc(-c3ccc4c5c(cccc35)C(=O)N(CCO)C4=O)ccc21 | growth | 119
COc1ccc(/C=C2\CN(C(=O)C(Cl)Cl)C/C(=C\c3ccc(OC)c(OC)c3)C2=O)cc1OC | growth | -70.9
CC1(C)CC(=O)C2=C(C1)C(c1ccc(Cl)cc1)n1ncc(C#N)c1N2 (configuration not stated) | growth | 102

query: Recorded growth of C=C1CC[C@@H]2C(C)(C)[C@H](O)CC[C@@]2(C)[C@@H]1COc1ccc2ccc(=O)oc2c1 , please.
result: 74.3

query: Recorded growth of CCCn1c(=S)sc2c(NNC(C)=O)nc(C)nc21 , please.
result: 101

query: Recorded growth of CSc1ccc2c3c(n(C[C@H](O)CO)c(=O)c2c1)-c1ccccc1C3=O , please.
result: 74.4

query: Recorded growth of COc1ccc(/C=N/Nc2c3ccccc3nc3ccccc23)cc1 , please.
result: 105

query: Recorded growth of O=C1/C(=C/c2ccc(Cl)cc2)CN(C(=O)C(Cl)Cl)C/C1=C\c1ccc(Cl)cc1 , please.
result: -65

query: Recorded growth of O=C(/C=C/c1cn(-c2ccccc2)nc1-c1ccccc1)CCC(=O)NO , please.
result: 104

query: Recorded growth of CN1CCN(c2ccc(NC3=CC(=O)c4ncncc4C3=O)cc2)CC1 , please.
result: -98.4

query: Recorded growth of Fc1ccc(/C=C/[C@@H]2C[C@@H](F)CCO2)cc1 , please.
result: 99.7
